Data provenance is patent US10494332B2.

tested.system: Laforin (Homo sapiens)
Sequence (O95278 whole entry): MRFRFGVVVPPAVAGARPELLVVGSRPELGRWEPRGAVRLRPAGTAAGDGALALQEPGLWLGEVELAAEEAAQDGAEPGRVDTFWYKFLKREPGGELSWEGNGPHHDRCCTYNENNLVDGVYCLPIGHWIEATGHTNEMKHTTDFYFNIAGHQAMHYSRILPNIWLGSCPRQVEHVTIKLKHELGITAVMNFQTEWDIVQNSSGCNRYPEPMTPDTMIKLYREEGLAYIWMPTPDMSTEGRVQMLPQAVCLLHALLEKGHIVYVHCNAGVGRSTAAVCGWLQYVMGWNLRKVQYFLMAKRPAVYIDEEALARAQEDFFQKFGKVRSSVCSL
test.description: PTP inhibition assay (pNPP)
Assay type: biochemical
condition.label: IC50 Laforin, pNPP at Km, pH 7.0, 25° C.
property: IC50

Exercise: Which measured IC50 value corresponds to Cc1c(Br)cc(NC(=O)CS(=O)(=O)O)cc1Br ?
Key: > 100 µM

====

tested.system: SHP2 (Homo sapiens)
Sequence (Q06124 224-528): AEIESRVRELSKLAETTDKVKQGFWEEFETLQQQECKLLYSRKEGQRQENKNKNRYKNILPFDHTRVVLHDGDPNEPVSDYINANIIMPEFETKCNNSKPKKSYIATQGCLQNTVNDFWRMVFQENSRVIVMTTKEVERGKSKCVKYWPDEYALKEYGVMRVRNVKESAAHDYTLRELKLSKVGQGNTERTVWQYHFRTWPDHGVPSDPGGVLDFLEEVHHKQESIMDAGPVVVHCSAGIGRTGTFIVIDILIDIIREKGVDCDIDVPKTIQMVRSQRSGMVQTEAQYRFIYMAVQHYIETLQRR
test.description: SHP2 phosphatase inhibition assay (pNPP)
Format: biochemical
condition.label: pNPP at Km, pH 7.0, 25° C.; read-out: IC50 SHP2
property: pIC50
Give bare numbers, as −log10 of the molar value.

Use these answered entries as a reference point.
O=C(Nc1ccc(CNC(=O)C(c2ccccc2)S(=O)(=O)O)cc1)C(=O)Nc1ccccc1-c1nc2ccccc2[nH]1 (centres unmarked) : 5.96
CC(C)c1ccc(NC(=O)C(=O)Nc2ccc(NC(=O)C(c3ccccc3)S(=O)(=O)O)cc2)cc1 (centres unmarked) : 5.64
Cc1c(Br)cc(NC(=O)C(=O)Nc2cccc(NC(=O)C(c3ccccc3)S(=O)(=O)O)c2)cc1Br (centres unmarked) : 5.24

Turning now to a further molecule:
Exercise: Need pIC50, item O=C(Nc1ccc(CNC(=O)C(c2ccccc2)S(=O)(=O)O)cc1)C(=O)Nc1ccc(-c2cccs2)cc1 (centres unmarked)
Key: 5.87
